target.under.test: ETS1 (UniProt P14921)
Sequence: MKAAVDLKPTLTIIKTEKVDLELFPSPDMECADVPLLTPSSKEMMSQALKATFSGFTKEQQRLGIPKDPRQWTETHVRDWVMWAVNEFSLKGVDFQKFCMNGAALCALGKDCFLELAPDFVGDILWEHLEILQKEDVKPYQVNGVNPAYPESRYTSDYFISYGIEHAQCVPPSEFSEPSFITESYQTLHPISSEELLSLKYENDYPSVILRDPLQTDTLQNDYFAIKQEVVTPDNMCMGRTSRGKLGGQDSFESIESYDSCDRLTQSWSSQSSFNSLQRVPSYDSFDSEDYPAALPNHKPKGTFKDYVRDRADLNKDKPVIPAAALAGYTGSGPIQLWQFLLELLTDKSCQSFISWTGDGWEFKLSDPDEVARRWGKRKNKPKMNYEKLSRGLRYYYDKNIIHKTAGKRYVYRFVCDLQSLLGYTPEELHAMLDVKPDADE
assay.comment: ETS1 binding intensity (PBM fluorescence) in presence of RUNX1, normalised to ETS1-only experiment (arbitrary fluorescence units); higher = stronger binding
assay.conditions: ETS1 concentration 1 nM; RUNX1 concentration 25 nM
Assign met whenever ETS1 binding intensity does not fall below 800; assign not met whenever it does.

                          sequence_input  category
 0  TCCGGAAGTCGGAGGAACACCCCAGCCGCCGCAGCC       met
 1  GCTTACACTTCCTCCCTGAACCCCTGCGGTTTCACA       met
 2  TGCATGTGCAGCAGAGGAAACCACAAGTTATTCCCT       met
 3  AGCGCTTCCCCTTCCGCTGCCGCAGCCGCCGCCTCC   not met
 4  TGGGCACGGGAGGAAGAGGCTGGGTGGTAAACAGGA   not met
 5  GAGGACGCGGAAGTCCTTCTTGCGGGGCGGAGCTAG       met
 6  ACCTGCACTTCCTCCTCCCTAGACCGCACCCTTCTC   not met
 7  TGGGGTGGTGACATGGGATGTGGTTTTGGGGTTGCA       met
 8  GGACTGCGTTTCCGGACACTGCGGGTGCCGGTAGCC       met
 9  TCATTCTCTGATAAAGGAAGTGGTTACAGCACAATT       met
10  GCACAGGCCGGAAGGAAAAGGGTTGTGGGGCTCATT       met
11  CGGGACCTGTTTCCTTGGGAACCACAAGATAAGACC   not met
12  TGGCTACCCGGAAGGCGCGTTGGCTGCGGCTACGCA       met
13  GGTTCTCTAGGGAGAGGATGTGGGTTTGTCTCTGGG       met
14  GCCGGGCACCCCGGAAGACCGCTGGGAACCGGCTTT       met
15  AGTACGATGGGAGGAAGTGGTTTGTAAGAGGAGGAC       met
16  GCATTTCTCAGAAAAGGAAGCGGTTGTGCCGGGAGG       met
17  GCCATCCAGGAAGTACAGACTCCCTGACCGCACTGA       met
18  AACTAGAGCGTCATTTCCTGTGGGTACAAGTCCAGT       met
19  GCGCAGGTCCCGGATGTTGCGGACAGTATGAGGCAA       met
